Quick list: Ki per entry.
TARGET SYSTEM: Melanocortin receptor 5 (Homo sapiens)
Sequence (P33032 whole entry): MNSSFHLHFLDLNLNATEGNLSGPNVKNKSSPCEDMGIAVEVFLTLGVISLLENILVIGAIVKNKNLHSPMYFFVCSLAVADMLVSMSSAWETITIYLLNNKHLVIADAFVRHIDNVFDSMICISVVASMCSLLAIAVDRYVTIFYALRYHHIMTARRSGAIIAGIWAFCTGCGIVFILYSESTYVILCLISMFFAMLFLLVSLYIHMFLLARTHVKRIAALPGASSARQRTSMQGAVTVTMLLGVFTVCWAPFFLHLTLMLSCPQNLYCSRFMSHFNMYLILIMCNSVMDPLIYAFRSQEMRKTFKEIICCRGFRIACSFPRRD
Bridge positions count the residues as written; N and C are the ends. Square brackets hold non-standard residues; d marks the D form. Peptide text beside a SMILES is read from it. d2Nal = N[C@H](Cc1ccc2ccccc2c1)C(=O)O; Pen = CC(C)(S)[C@H](N)C(=O)O; Nle = CCCC[C@H](N)C(=O)O
Give the number; nM is assumed, so skip it.

Look over these answered cases.
COMPOUND	OBS VALUE
CCCC[C@H](NC(=O)[C@@H](NC(=O)[C@@H](N)Cc1ccc(O)cc1)C(C)C)C(=O)N[C@H]1CC(=O)NCCCC[C@@H](C(=O)N[C@@H](CCCN=C(N)N)C(=O)N[C@@H](Cc2ccccc2)C(=O)NCC(N)=O)NC(=O)[C@H](Cc2c[nH]c3ccccc23)NC(=O)[C@H](CCCN=C(N)N)NC(=O)[C@H](Cc2ccccc2)NC(=O)[C@H](Cc2c[nH]cn2)NC1=O	8.8
CCCC[C@H](NC(=O)[C@@H](NC(=O)[C@@H](N)Cc1ccc(O)cc1)C(C)C)C(=O)N[C@@H]1C(=O)N[C@@H](Cc2c[nH]cn2)C(=O)N[C@@H](Cc2ccccc2)C(=O)N[C@@H](CCCN=C(N)N)C(=O)N[C@@H](Cc2c[nH]c3ccccc23)C(=O)N[C@H](C(=O)N[C@@H](CCCN=C(N)N)C(=O)N[C@@H](Cc2ccccc2)C(=O)NCC(N)=O)CSSC1(C)C (H-YV[Nle][Pen]HFRWCRFG-NH2; disulfide 4-9)	150
CCCC[C@H](NC(=O)[C@@H](NC(=O)[C@@H](N)Cc1ccc(O)cc1)C(C)C)C(=O)NCC(=O)N1CCC[C@H]1C(=O)N[C@H](Cc1ccc2ccccc2c1)C(=O)N[C@@H](CCCN=C(N)N)C(=O)N[C@@H](Cc1c[nH]c2ccccc12)C(=O)N[C@@H](CC(=O)O)C(=O)N[C@@H](CCCN=C(N)N)C(=O)N[C@@H](Cc1ccccc1)C(=O)NCC(N)=O (H-YV[Nle]GP[d2Nal]RWDRFG-NH2)	14
CC(C)[C@H](NC(=O)[C@@H](N)Cc1ccc(O)cc1)C(=O)N[C@H]1CSSC(C)(C)[C@@H](C(=O)N[C@@H](CCCNC(=N)N)C(=O)N[C@@H](Cc2ccccc2)C(=O)NCC(N)=O)NC(=O)[C@H](Cc2c[nH]c3ccccc23)NC(=O)[C@H](CCCNC(=N)N)NC(=O)[C@H](Cc2ccccc2)NC(=O)[C@H](Cc2cnc[nH]2)NC(=O)CNC1=O (H-YVCGHFRW[Pen]RFG-NH2; disulfide 3-9)	480

Now for another entry.
Tell me its Ki given CCCC[C@H](NC(=O)[C@@H](NC(=O)[C@@H](N)Cc1ccc(O)cc1)C(C)C)C(=O)NCC(=O)NC(C)(C)C(=O)N[C@@H](Cc1ccccc1)C(=O)N[C@@H](CCCN=C(N)N)C(=O)N[C@H](Cc1ccc2ccccc2c1)C(=O)N[C@@H](CC(=O)O)C(=O)N[C@@H](CCCN=C(N)N)C(=O)N[C@@H](Cc1ccccc1)C(=O)NCC(N)=O as the entry.
120

====

TARGET SYSTEM: Melanocortin receptor 4 (Homo sapiens, UniProt P32245)
Sequence (P32245 whole entry): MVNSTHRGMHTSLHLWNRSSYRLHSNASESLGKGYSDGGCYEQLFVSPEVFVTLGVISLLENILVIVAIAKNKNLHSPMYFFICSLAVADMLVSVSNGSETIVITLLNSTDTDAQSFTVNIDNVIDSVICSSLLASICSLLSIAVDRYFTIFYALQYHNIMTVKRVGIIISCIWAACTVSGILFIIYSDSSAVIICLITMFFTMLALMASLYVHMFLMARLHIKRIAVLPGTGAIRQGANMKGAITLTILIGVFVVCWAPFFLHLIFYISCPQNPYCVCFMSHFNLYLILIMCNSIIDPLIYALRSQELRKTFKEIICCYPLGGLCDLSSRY
ASSAY SUMMARY: Agonist activity against human Melanocortin 4 receptor at 10 uM
Square brackets hold non-standard residues; d marks the D form. Peptide text beside a SMILES is read from it. d2Nal = N[C@H](Cc1ccc2ccccc2c1)C(=O)O; Nle = CCCC[C@H](N)C(=O)O
OUTCOME MEASURE: Activity (%)
Give the number; % is assumed, so skip it.

COMPOUND	OBS VALUE
CC(C)[C@H](NC(=O)[C@@H](N)Cc1ccc(O)cc1)C(=O)N[C@@H]1CSSC[C@@H](C(=O)N[C@@H](CCCN=C(N)N)C(=O)N[C@@H](Cc2ccccc2)C(=O)NCC(N)=O)NC(=O)[C@H](Cc2c[nH]c3ccccc23)NC(=O)[C@H](CCCN=C(N)N)NC(=O)[C@@H](Cc2ccccc2)NC(=O)[C@H](Cc2c[nH]cn2)NC(=O)CNC1=O	92
CCCC[C@H](NC(=O)[C@@H](NC(=O)[C@@H](N)Cc1ccc(O)cc1)C(C)C)C(=O)N[C@H]1CC(=O)NCCCC[C@H](C(=O)N[C@@H](CCCN=C(N)N)C(=O)N[C@@H](Cc2ccccc2)C(=O)NCC(N)=O)NC(=O)[C@@H](Cc2c[nH]c3ccccc23)NC(=O)[C@H](CCCN=C(N)N)NC(=O)[C@@H](Cc2ccccc2)NC(=O)[C@H](Cc2c[nH]cn2)NC1=O	100
CCCC[C@H](NC(=O)[C@@H](NC(=O)[C@@H](N)Cc1ccc(O)cc1)C(C)C)C(=O)NCC(=O)N[C@@H](Cc1c[nH]cn1)C(=O)N[C@H](Cc1ccc2ccccc2c1)C(=O)N[C@@H](CCCN=C(N)N)C(=O)N[C@@H](Cc1c[nH]c2ccccc12)C(=O)N[C@@H](CC(=O)O)C(=O)N[C@@H](CCCN=C(N)N)C(=O)N[C@@H](Cc1ccccc1)C(=O)NCC(N)=O	100
CCCC[C@H](NC(=O)[C@@H](NC(=O)[C@@H](N)Cc1ccc(O)cc1)C(C)C)C(=O)NCC(=O)N[C@@H](Cc1c[nH]cn1)C(=O)N[C@H](Cc1ccc2ccccc2c1)C(=O)N[C@@H](CCCN=C(N)N)C(=O)N[C@H](Cc1ccc2ccccc2c1)C(=O)N[C@@H](CC(=O)O)C(=O)N[C@@H](CCCN=C(N)N)C(=O)N[C@@H](Cc1ccccc1)C(=O)NCC(N)=O	100
CCCC[C@H](NC(=O)[C@@H](NC(=O)[C@@H](N)Cc1ccc(O)cc1)C(C)C)C(=O)NCC(=O)N[C@@H](Cc1c[nH]cn1)C(=O)N[C@@H](Cc1ccccc1)C(=O)N[C@@H](CCCN=C(N)N)C(=O)N[C@@H](Cc1c[nH]c2ccccc12)C(=O)N[C@@H](CC(=O)O)C(=O)N[C@@H](CCCN=C(N)N)C(=O)N[C@@H](Cc1ccccc1)C(=O)NCC(N)=O	105
CCCC[C@H](NC(=O)[C@@H](NC(=O)[C@@H](N)Cc1ccc(O)cc1)C(C)C)C(=O)NCC(=O)N1CCC[C@H]1C(=O)N[C@H](Cc1ccc2ccccc2c1)C(=O)N[C@@H](CCCN=C(N)N)C(=O)N[C@@H](Cc1c[nH]c2ccccc12)C(=O)N[C@@H](CC(=O)O)C(=O)N[C@@H](CCCN=C(N)N)C(=O)N[C@@H](Cc1ccccc1)C(=O)NCC(N)=O (H-YV[Nle]GP[d2Nal]RWDRFG-NH2)	100

Tell me its Activity given CCCC[C@H](NC(=O)[C@@H](NC(=O)[C@@H](N)Cc1ccc(O)cc1)C(C)C)C(=O)NCC(=O)N[C@@](C)(Cc1ccccc1)C(=O)N[C@@H](Cc1ccccc1)C(=O)N[C@@H](CCCN=C(N)N)C(=O)N[C@H](Cc1ccc2ccccc2c1)C(=O)N[C@@H](CC(=O)O)C(=O)N[C@@H](CCCN=C(N)N)C(=O)N[C@@H](Cc1ccccc1)C(=O)NCC(N)=O as the entry.
80
